TOP MFI values by entry
system under test: T1, human SIRPβ stably expressed on CHOK1 cells (human, UniProt O00241 30-398)
T1 construct: whole, on cells; also called CHOK1-human SIRPB; CHOK1-hSIRPβ
T1 sequence (O00241 30-398): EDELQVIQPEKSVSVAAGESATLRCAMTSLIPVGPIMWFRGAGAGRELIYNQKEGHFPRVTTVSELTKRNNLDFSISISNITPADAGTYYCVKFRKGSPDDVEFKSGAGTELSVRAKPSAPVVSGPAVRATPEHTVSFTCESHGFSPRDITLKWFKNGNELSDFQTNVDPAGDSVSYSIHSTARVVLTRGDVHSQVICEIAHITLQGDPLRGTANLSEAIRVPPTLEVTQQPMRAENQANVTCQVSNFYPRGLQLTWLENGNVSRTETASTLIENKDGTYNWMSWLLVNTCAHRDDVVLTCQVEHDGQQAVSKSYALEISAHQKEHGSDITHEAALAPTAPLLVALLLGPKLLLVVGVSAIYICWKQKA
protocol: FACS, CHOK1-hSIRPβ cells
Kindly format the answer as number then unit.

# count of solved cases: 3
binder	TOP MFI
hu1H9G4 (antibody, V domains shown) VH: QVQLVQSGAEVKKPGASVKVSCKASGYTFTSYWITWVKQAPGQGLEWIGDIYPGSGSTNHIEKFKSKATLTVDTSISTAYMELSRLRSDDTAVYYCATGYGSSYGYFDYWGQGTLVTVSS VL: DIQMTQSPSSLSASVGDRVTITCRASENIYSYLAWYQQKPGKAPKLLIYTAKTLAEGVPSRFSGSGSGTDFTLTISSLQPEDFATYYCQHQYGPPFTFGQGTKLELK	7140 MFI
042c (antibody, V domains shown, also called chimeric antibody 042c) VH: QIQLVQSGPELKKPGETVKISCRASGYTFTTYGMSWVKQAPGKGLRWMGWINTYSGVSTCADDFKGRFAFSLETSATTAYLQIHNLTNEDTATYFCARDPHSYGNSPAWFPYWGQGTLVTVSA VL: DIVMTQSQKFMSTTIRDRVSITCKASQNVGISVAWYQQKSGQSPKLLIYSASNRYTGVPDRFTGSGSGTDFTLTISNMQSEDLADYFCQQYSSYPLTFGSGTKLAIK	3910 MFI
073c (antibody, V domains shown, also called chimeric antibody 073c) VH: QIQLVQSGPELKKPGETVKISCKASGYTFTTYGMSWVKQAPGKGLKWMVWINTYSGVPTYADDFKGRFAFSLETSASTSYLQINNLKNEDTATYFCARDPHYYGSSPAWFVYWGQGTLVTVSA VL: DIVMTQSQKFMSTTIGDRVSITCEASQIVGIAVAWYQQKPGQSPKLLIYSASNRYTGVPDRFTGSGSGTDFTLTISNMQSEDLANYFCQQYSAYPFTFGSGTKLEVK	2630 MFI

Let's switch to this binder now.
What value of measured TOP MFI is listed for 025c (antibody, V domains shown, also called chimeric antibody 025c; parental antibody of 025c) VH: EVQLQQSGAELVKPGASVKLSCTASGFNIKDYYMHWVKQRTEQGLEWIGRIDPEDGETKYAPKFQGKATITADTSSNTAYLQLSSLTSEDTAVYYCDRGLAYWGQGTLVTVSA VL: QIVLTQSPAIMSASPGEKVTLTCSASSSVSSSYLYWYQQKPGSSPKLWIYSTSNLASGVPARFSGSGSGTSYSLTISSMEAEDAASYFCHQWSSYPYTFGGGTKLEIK ? 10900 MFI
